B1: HEEH_KT_rd6_0790 (parent)
chain: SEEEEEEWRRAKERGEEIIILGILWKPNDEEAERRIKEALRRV

- Variants of: B1
- experimental protocol: folding stability dG (cDNA display proteolysis); higher = more stable
- condition set: PBS, room temperature
assay endpoint: folding stability dG (kcal/mol)
State the answer as a number, implicitly in kcal/mol.

G22I
2.28

// lookup folding stability dG for A32F
0.917

// lookup folding stability dG for I18R
1.3

// lookup folding stability dG for S1A
2.38

// lookup folding stability dG for R34Y
1.87

// lookup folding stability dG for W25E
0.532
